Source listed as the supplement of paper PMC12698765.

Tested on: 409B2 hiPSC (iCRISPR Cas9, FRMD7 editing)
Assay: MMEJ-attributed deletion frequency relative to solvent control (fold (ratio to mock)); higher = more MMEJ outcomes
Conditions: 20 nM
Structures can show the parent of a compound that is named as a salt.
Each entry below carries its reported MMEJ-attributed deletion frequency.
// no unit, no text: just the number

# example entries with known answers
molecule: C[C@@H]1O[C@@H](O[C@@H]2[C@@H](O)[C@H](OCCc3ccc(O)c(O)c3)O[C@H](CO)[C@H]2OC(=O)/C=C/c2ccc(O)c(O)c2)[C@H](O)[C@H](O)[C@H]1O [Verbascoside] (in DMSO)
MMEJ-attributed deletion frequency: 1.01
//
molecule: Nc1ccn([C@@H]2O[C@H](CO)[C@@H](O)[C@@H]2O)c(=O)n1 [Cytarabine hydrochloride] (in DMSO)
MMEJ-attributed deletion frequency: 0.911
//
molecule: NCCS [2-Aminoethanethiol] (in DMSO)
MMEJ-attributed deletion frequency: 0.917

Switching to the query record.
Field MMEJ-attributed deletion frequency (entry Nc1ncnc2c1ncn2C1CC(O)C(CO)O1 (centres undefined) [2'-Deoxyadenosine monohydrate] (in DMSO) ) reads 0.957
